Target: purified human autoBACE-2 (Homo sapiens (Human), UniProt Q9Y5Z0)
Sequence (Q9Y5Z0 63-473): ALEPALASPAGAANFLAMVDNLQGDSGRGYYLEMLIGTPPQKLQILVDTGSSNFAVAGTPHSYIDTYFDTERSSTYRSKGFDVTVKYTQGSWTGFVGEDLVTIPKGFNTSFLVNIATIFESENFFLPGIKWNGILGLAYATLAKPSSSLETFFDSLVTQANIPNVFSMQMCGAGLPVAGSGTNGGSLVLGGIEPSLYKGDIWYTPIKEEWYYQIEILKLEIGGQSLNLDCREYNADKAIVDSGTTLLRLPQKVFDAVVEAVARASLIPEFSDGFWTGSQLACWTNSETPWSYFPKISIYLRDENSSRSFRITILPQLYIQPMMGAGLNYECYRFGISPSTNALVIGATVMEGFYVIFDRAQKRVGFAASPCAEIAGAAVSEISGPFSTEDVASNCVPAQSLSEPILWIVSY
Assay: BACE-2 Assay (BACE-HTRF assay)
Format: biochemical
Details: Ki calculated from IC50 using the Cheng-Prusoff equation; read-out: BACE2 Ki
ATTRIBUTE_MEASURED: Ki (nM)

P: CC1=NOC(CNC(=O)c2cc(Cl)c([C@]3(C)CS(=O)(=O)C(C)(C)C(=N)N3)s2)C1 (stereo partly drawn) [Example 22f]
Q: COc1ccc(C(=O)Nc2cc(F)c(F)c([C@]3(C)CS(=O)(=O)C(C)(C)C(=N)N3)c2F)nc1 [Example 9ac]
R: CC1(C)C(=N)N[C@](C)(c2sc(C(=O)NCc3cc(Cl)ccn3)cc2Cl)CS1(=O)=O [Example 22u]
query: Thanks in advance: please rank these 3 entries by Ki, highest to lowest. Please respond by ranking the labels in the order requested.
result: P, R, Q
(P: 1800 nM, R: 77 nM, Q: 13 nM)
